Numbers sourced from patent US20140221623A1.

Give measured koff for each item. Keep answers brief.
# TARGET OF ASSAY: T1, Human soluble IL6-R (human, UniProt P08887 20-358)
# T1 construct: Bought soluble receptor; biotinylated in some Alphascreen assays; also called sIL6-R; hIL-6R
# T1 sequence (looked up): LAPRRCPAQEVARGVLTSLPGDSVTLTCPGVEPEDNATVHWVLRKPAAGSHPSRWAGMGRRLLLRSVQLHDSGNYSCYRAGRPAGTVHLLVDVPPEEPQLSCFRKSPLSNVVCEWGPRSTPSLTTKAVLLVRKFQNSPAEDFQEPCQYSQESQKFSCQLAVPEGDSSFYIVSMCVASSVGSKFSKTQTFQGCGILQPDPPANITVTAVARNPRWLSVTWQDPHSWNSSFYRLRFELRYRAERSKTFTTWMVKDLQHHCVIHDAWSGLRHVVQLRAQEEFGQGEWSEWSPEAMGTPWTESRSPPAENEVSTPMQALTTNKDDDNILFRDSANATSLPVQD
# ASSAY PROCEDURE: SPR (Biacore), off-rate
Lab book: enter the figure in s⁻¹, no units written.

Prompt: Would you mind telling me what koff value was observed for PMP 34 F8 (VHH, also called PMP34F8(t)) VHH: EVQLVESGGGLVQPGGSLRLSCAASGFSLDYYAIGWFRQAPGKEREGVSCMDSSDGTTNTYYSDSVKGRFTISRDDAKNTVYLQMNSLKPEDTASYYCAADGHLNWGQPYVPCSQISWRGWNDYWGQGTQVTVSS ?
Response: 0.000142

Prompt: Would you mind telling me what koff value was observed for PMP 28 B1 (VHH, also called PMP28B1(t)) VHH: EVQLVESGGGLVQPGGSLRLSCAASGFTLNYYAIGWFRQAPGKEREGVSCISSSDGSTYYADSVKGRFTISRDNAKNTFYLQMNSLKPEDTAVYYCAAEGLGDSDSPCGAAWYNDYWGQGTQVTVSS ?
Response: 0.00134

Prompt: Would you mind telling me what koff value was observed for PMP 31 C5 (VHH, also called PMP31C5(t)) VHH: EVQLVESGGGLVQAGGSLRLSCAASGFTFDDYAIGWFRQAPGKEREGVSCISSSDGSTYYADSVKGRFTISSDNAKNTVYLLMNSLKPEDTAVYYCAAEPPDSMWSLDGSPEFFKFWGQGTQVTVSS ?
Response: 0.000111

Prompt: Would you mind telling me what koff value was observed for IL6R04 (VHH, also called PMP32C9; PMP 32 C9) VHH: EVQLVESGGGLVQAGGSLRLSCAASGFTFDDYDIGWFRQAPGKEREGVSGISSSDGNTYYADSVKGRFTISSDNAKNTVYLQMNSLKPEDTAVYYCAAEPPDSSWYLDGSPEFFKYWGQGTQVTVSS ?
Response: 0.00015
